List of pIC50 values.
- system under test: ERAP2 (Homo sapiens (Human), UniProt Q6P179)
- Sequence (Q6P179 whole entry): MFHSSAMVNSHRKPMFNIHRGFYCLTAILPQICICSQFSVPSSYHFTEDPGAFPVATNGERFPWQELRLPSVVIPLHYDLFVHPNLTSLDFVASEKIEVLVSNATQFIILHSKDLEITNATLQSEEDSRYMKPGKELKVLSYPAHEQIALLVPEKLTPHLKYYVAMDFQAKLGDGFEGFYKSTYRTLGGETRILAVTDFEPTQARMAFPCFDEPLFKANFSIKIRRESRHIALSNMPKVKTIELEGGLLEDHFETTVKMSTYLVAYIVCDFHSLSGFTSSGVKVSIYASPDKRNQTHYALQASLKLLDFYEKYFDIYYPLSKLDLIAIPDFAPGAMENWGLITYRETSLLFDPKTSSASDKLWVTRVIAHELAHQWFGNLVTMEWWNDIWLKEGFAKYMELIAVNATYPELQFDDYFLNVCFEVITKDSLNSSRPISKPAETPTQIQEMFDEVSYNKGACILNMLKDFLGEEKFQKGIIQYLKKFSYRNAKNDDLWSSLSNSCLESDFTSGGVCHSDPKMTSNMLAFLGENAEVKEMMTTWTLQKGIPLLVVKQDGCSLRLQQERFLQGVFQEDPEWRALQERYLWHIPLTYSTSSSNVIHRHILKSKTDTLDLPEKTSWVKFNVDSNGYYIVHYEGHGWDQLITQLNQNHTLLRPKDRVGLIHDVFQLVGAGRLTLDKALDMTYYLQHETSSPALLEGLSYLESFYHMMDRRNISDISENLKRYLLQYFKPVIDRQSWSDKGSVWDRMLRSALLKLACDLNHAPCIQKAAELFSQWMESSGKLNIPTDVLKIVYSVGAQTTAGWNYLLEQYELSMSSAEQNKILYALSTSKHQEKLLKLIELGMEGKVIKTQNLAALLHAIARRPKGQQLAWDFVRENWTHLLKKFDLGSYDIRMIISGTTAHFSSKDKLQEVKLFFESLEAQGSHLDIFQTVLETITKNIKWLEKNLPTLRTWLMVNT
pIC50: −log10 of the molar value.

molecule	value measured
COc1ccc(C[C@@H](C(=O)NO)n2cc(C3CCCCN3S(=O)(=O)c3ccc(-c4ccccc4)s3)nn2)cc1 (some centres unmarked)	< 5.30
COc1ccc(C[C@@H](C(=O)NO)n2cc([C@@H](C)NS(=O)(=O)c3ccc(-c4ccccn4)s3)nn2)cc1	> 5.30
O=C(C[C@@H](Cc1c[nH]c2ccccc12)n1cc(CNS(=O)(=O)c2ccc(-c3ccccc3)s2)nn1)NO	< 5.30

Q: Bench note: what pIC50 did C#Cc1ccc(C[C@@H](C(=O)NO)n2cc(CNS(=O)(=O)c3ccc(-c4ccccc4)s3)nn2)cc1 show?
Result: > 6.30
